Source: patent US20230272086A1

Target: T1, cynomolgus monkey ST2 antigen (Cyno-ST2-his, Sino biological, 90915-C08H) (cynomolgus monkey, UniProt Q01638 19-328 (human entry))
T1 construct: Bought protein; not shown: his tag
T1 chain: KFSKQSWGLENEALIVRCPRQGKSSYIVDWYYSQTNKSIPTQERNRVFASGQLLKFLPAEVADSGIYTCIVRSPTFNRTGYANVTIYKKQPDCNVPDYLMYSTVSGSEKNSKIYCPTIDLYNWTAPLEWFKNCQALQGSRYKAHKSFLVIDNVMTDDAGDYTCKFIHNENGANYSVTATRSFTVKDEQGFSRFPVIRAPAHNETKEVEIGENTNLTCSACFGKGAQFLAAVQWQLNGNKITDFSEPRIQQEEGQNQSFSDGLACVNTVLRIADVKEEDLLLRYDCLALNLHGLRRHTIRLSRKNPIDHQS
Test: SPR (Biacore T200), Cyno-ST2-his captured by anti-his antibody on CM5, antibody as analyte, 1:1 model
pKd: −log10 of the molar value.

binder: Chimeric 26A1 (antibody, human IgG2, kappa, V domains shown, also called xi26A1) VH: QVQLQQSGAELVRPGASVTLSCKASDYIFTDSEIHWVKQTLVHGLEWIGAIDPETGDTAYNQKFKGKATLTADKSSSTAYMELSSLTSEGSAVYYCSGSTTDCYFAYWGQGTTLTVSS VL: DIVMTQAAFSNPVTLGTSASISCRSSKSLLHSNGIIYLYWYLQKPGQSPQLLIYQMSNLASGVPDRFSSSGSGTDFTLRISRVEAEDVGVYYCAQNLELPFTFGSGTKLEIKR
pKd: 7.16

binder: Chimeric 17E2 (antibody, human IgG2, kappa, V domains shown, also called xi17E2) VH: QVQLQQSGAELVRPGASVTLSCKASGYTFTDYEMHWVKQTPVLGLEWIGAIDPETGDTAYNQKFKGKATLTADKSSSTAYMELSSLASEDSAVYYCIRVDSNYDYFDYWGQDTTLTVSS VL: DIVLTQSPPILSASPGEKVTMTCRASSSVSYMHWYQQKPGSSPKPWIYDTSNLASGVPARFSGSGSGTSYSLTISRVEAEDAATYYCQQWSSNPLTFGAGTKLELKR
pKd: 10.59

binder: Chimeric 7D1 (antibody, human IgG2, kappa, V domains shown, also called xi7D1) VH: QVQLQQSGAELVRPGASVTLSCKASGYTFTDYEMHWVKQTPVHGLDWIGTIDPETGDTAYNQKFKGRATLTADKSSSTAYMELSSLTSEDSAVYYCTRYSYTNSPYGMDYWGQGTSVTVSS VL: DVVMTQTPKFLLVSAGDRVTITCKASQSVSNDVAWYQQKPGQSPKLLIYYASNRYTGVPDRFTGSGYGTDFTFTINTVQAEDLAVYFCQQDYSSPYTFGGGTKLEIKR
pKd: 9.91
